- experimental_target: SARS-COV-2 RBD extracellular domain expressed with a C-terminal mouse IgG2a Fc (SARS-CoV-2)
- assay_procedure: Biacore SPR, mAb captured on anti-hFc, 25 C
measurement_label: t½ (min)
Give your result in min as a bare value.

binder: mAb15158 (antibody, V domains shown) VH: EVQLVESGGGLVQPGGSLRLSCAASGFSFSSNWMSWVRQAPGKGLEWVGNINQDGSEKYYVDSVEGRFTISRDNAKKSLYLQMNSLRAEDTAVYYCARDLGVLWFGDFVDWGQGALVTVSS VL: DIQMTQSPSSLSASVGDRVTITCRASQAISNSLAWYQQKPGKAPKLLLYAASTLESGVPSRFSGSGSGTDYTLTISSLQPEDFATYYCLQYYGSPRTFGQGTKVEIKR
value_reported: 1160
--
binder: mAb14283 (antibody, V domains shown) VH: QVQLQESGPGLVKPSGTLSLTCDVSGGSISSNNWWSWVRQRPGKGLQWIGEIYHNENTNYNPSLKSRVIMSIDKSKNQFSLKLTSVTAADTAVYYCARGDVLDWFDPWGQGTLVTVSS VL: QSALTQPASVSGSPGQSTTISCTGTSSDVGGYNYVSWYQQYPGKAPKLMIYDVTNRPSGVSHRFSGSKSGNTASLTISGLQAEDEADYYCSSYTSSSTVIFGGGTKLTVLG
value_reported: 142

What value of t½ has been reported for the following binder? mAb14235 (antibody, V domains shown) VH: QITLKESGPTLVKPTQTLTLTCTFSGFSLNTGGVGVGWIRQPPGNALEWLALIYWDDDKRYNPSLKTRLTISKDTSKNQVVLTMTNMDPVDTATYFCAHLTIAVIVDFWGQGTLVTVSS VL: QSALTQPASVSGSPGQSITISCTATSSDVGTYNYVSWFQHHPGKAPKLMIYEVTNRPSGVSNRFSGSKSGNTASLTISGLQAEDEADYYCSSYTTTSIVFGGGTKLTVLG 168

Each recorded value in this set is attributed to patent US20260069689A1.
